target: Troponin I, cardiac muscle (Homo sapiens) + Troponin T, cardiac muscle (Homo sapiens) + Troponin C, slow skeletal and cardiac muscles (Homo sapiens) (UniProt P19429+P45379+P63316); assay: cardiac RTF calcium sensitivity activators, confirmation, biochemical, IANBD-TnC fluorescence, triplicate (AID 504383); details: IANBD-labeled cardiac RTF, Ca2+ sensitivity fluorescence; at 7.2 µM; active compounds read high; scaled from EC20 to saturating calcium; tested at EC20 calcium, 0.472 mM
In all, about 2,500 compounds went through this assay and about 1,200 (48%) were called active. So high a share suggests a set chosen from earlier hits. This is one part of the list.
Binning scheme for activation: low: < 10%; moderate: ≥ 10% and < 40%; high: ≥ 40%

1. Cc1cc(C)c2c(=O)n(-c3ccccc3)[nH]c2n1 ... moderate
2. CCN1C(=O)/C(=C/C=C2/SCCN2C)SC1=S ... high
3. CC(C)(C)C(=O)/C=c1\s/c(=C\c2ccc(-c3ccc([N+](=O)[O-])cc3)o2)c(=O)n1CC(=O)NC(N)=O ... high
4. CCc1ccc(C2C(C#N)=C(N)SC(N)=C2C#N)s1 ... low
5. CN1C(=O)/C(=C/C=C2\SCCN2C)OC1=S ... moderate
6. CCN1C(=O)/C(=C\C=C2/C=CC=CN2CC)SC1=S ... high
7. COc1ccccc1NS(=O)(=O)c1cc(NC(=O)CCNC(C)=O)ccc1N1CCCCC1 ... low
8. CN1CCS/C1=C/C=C1\SC(=S)N(CC(=O)O)C1=O ... high
9. O=c1c(/C=N/Nc2ccccc2)c(Sc2nnnn2-c2ccccc2)nc2ccccn12 ... low
10. CCCNC(=O)Cn1c(=O)/c(=C\c2ccc(-c3ccc([N+](=O)[O-])cc3)o2)s/c1=C\C(=O)C(C)(C)C ... moderate

====

target: Troponin I, cardiac muscle (Homo sapiens) + Troponin T, cardiac muscle (Homo sapiens) + Troponin C, slow skeletal and cardiac muscles (Homo sapiens) (UniProt P19429+P45379+P63316); experiment: cardiac RTF calcium sensitivity activators, confirmation, biochemical, IANBD-TnC fluorescence, triplicate (AID 504383); conditions: IANBD-labeled cardiac RTF, Ca2+ sensitivity fluorescence; at 7.2 µM; scaled from EC20 to saturating calcium; tested at EC20 calcium, 0.472 mM
Out of some 2,500 compounds screened, about 1,200 (48%) were called active.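 How the source made its calls: active means mean activation above the low control average plus 3 SD, as set in the primary screen (cut at about 12% in these data); inactive means the rest.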 The set was probably picked from earlier hits. The list shows a part of the results.
Outcomes: active, inactive

1) Cc1c(N=C2N=C(NC(=O)Nc3ccc(Cl)cc3)c3ccccc32)c(=O)n(-c2ccccc2)n1C ... active
2) Cc1ccc(/C=C2\Oc3c(ccc(O)c3CN3CCN(CCO)CC3)C2=O)cc1 ... active
3) CCC(CC)C(=O)c1c[nH]c(C(=O)N2CCN(c3ccccc3F)CC2)c1 ... active
4) COc1ccccc1/C=C/C=C1\Oc2c(ccc(O)c2CN2CCN(CCO)CC2)C1=O ... active
5) Cc1cc(/C=C2\NC(=S)N(C)C2=O)ccc1N1CCCC1 ... active
6) Cc1cc([N+](=O)[O-])nn1CC(=O)Nc1c(C)n(C)n(-c2ccccc2)c1=O ... inactive
7) O=C(NCC1CCCO1)c1c(O)nc2sccn2c1=O (stereo not given) ... active
8) O=C1/C(=C/C=C/c2ccccc2)Oc2c1ccc(O)c2CN1CCN(CCO)CC1 ... active
9) CC(C)CN1CCC(C(=O)N2CCN(c3ccccc3F)CC2)CC1 ... inactive
10) CCN1CCN(Cc2c(O)ccc3c2O/C(=C\C=C\c2ccccc2OC)C3=O)CC1 ... inactive
